Biological target: recombinant SARS-CoV-2 RBD with C-terminal AviTag (SARS-CoV-2, UniProt P0DTC2 319-541)
attributeMeasured: Kd (nM)

binder	measuredNumber
R5C-A2 (competition ELISA sample) (VHH) VHH: QVQLVESGGGLVQPGGSLRLSCAASGDIFSKNAMHWVRQAPGKQREFVAGIYSDGSSLYADSVKGRFTISRDNAKNTVYLQMNSLKPEDTAVYYCAALDYSARYRTWGQGTQVTVSS	13.2
MBP-5HVZ-R5C-B2-H6 (VHH, not shown: large carriers; small tags and cut ends) VHH: QVQLVESGGGLVQPGGSLRLSCAASGSIFSLNWVHWFRQAPGKSREGVASINSGGHADYSDSVKGRFTISRDNAKNTVYLQMNSLKPEDTAVYYCAAGPYGAYNFNSWGQGTQVTVSS	57.3
